assay: soluble on expression in E. coli; label from the status in PepcDB or PDB records

{"residues": "MGSDKIHHHHHHMENLIKIDTVDQYNKMFGLETLHPLVSVVDLSKSETWPTNFRVNYGIYGLFLKDTKCGDIRYGRQYYDYQEGTVVGFAPGQVTGIELKDGTRPLAHGLLFHPDLIRGTALGRDIKRYSFFSYESNEALHLSEEEKGIFVDCLRKIQIELEHSIDKHSKRLIAMNIELLLDYCLRFYDRQFTTRAETNKDVLVRFERLLDEYLQSDLLRQEGLPTVRYFAEKICLSPNYFGDLIKKETGKTAQENIQDRIISLAKEWIVGTNKTVSQIAYDLGFQYSQHFSRIFKKTVGCTPNEYRKSQMS", "soluble on expression in E. coli": "not soluble"}
{"residues": "MNSRIMFIGGVPGVGKTSISGYIARNTDIDIVLSSDYLREFLRPFAPQESHLETSVYDAWKFYGDMSDDNIIRGYLDQARPIMGGINRVIARALANGEDLIIESLYFVPDMMDEMVLKNAFLAYVYIDDPDLHRSRLEDRINYTHRNSPGSRLAAHLKEYRTIMDYSMDMARGRGIGLYSTDDYALARQRLLDDFRKFVDRR", "soluble on expression in E. coli": "not soluble"}
{"residues": "MGSDKIHHHHHHMTDSKCYAAIDIGSNAVRLLIKKVKNNENLANKRLSKVMLLRVPLRLGFDVFSLGEVSDAKVMKLRRLMKAFRQLMKIYEVINYRACATSAMRDAQNGKSVIKKVWKDTGINIEVINGQEEARMIYNNHIECLEDRAGNYIYVDVGGGSTEINFLINGELVQSLSYNIGTVRMLSNSVREGSWEQMKSDLTRLTADFQGVNIIGSGGNINKLYRLADKKDKKQSRLPITSLQELYDKLKVLTLEQRMEEFNLKTDRADVIVPAAGIFLIIAGIVKAEYIHVPVIGLADGIIDNLYAIDLKTE", "soluble on expression in E. coli": "not soluble"}
{"residues": "ENKDNKGQIKTLDRDGQSITSYSFFAKNGDNVEKINVEVDQRQLSKDESLKLMENSRNKLVKLVLDKNKSANHIDKPLNLIREIPDTDISVTWDISDSRVLNYDGQIMSDVSQEGTIVNLTANMELNELTLSYTFAVNVFPRNYKGDIQEAVQEYINSQDSEQKKIFLPENISGEKISYYKSASK", "soluble on expression in E. coli": "soluble"}
{"residues": "MPMVRNPMFLRMLGGLALALMLSAGRVATADTGTEAARAVVDKLNGALIDVMRNAKQLGYQGRYKKLDPIVREVFQFEAVAQIALGAHWKTLNDDQKREFVKKLTELSIATYAAQFNSYAGEQFQYDSDQAVKPDRVVVRYKMVAPKETPVKFDYMVNQFDGKWEIINIVVDGISDLALKKAQYTSVIDREGFDVLMSKLTQKITDYANNENNSKSLEHHHHHH", "soluble on expression in E. coli": "soluble"}
{"residues": "GMQKLTRINDFNEVLNSRKSVKVFDENYKIPREEMDEIITKATKAPSSVNMQPWRIAVVQSDEMKEKVKESFGFNSRQLTTSSAMLIIFGDLQNYEKAEQIYGDAVEQQLMTEDIKAQLLDWILPYYKNLSREGMKDIVNIDSSLMAMQLMLTAKAHGYDTNPIGGFDKENIADIIGYDSDRYVPVLAIAIGKKAQDAHDSVRLPIDDVREFL", "soluble on expression in E. coli": "soluble"}
{"residues": "MEEMLREIERILEWPRMLKATVISKGFSFDEKYKIELESGASYFIKVCDSSYFERKQEEYEYMQQLDSLHIPMPKLIHFISLTKFNKCVQVFEWIDGLDGEDNLRTLSTQTQYRAGKKAGEVIKKIHLVEKEDKSNSWEMSIWSKYERYLEALKEYEVDFFRLNTVIDFVGNHKDLLKNRPIVFLHDDFHPANIMIDQNEFRAVIDFARFDIGDPIHDFYKVALFTTNISKPFAVGQVHGYCGGEPDLHFWKLYSLYAAMIFPADIVWTNRSTPYLLDDMKERLNGILEDHNDFSSYIPKWYQSSEFNK", "soluble on expression in E. coli": "not soluble"}
{"residues": "MGLCISKHSGSSYSYSDRDHWEVPVNPSNVRAVSSHQTASASDRASDKVDERPATFSHFQLARCGEDYTLSMVSLAAYQAERRHRGNLIKDRSQSALPWVQVYHSETGLNYSFQIDRTTTVKVAGFNYNVPNDGKTRHLYSAGTSQVNMPVIADNMSACIAVACAAENVDAGTG", "soluble on expression in E. coli": "not soluble"}
{"residues": "MGSDKIHHHHHHMTELLARNADCIVWLARYMERAENLARILGVAETFARDRAGRNWLAVVQINADEERFFARHRVADARTVPHFYILDPDNPNSILSSIKAARENARTLRPMISIEMWRQINRMNTWMGGLSDNAVAPANLAALCEEIKEACQLHVGITEGTFYRDQAHYFYHLGKSIERADQTTRLLDIKYHTLLPRPEDVGSALDISHWNALLKAVAGYQASRRVLAGKITPRSVAAFLLFSDSFPRSVILCVRQMDWLMTQLRTRYHLRGGVKALELLDGLRAALTDHDIDHVIDHGLHEFIDWVQSQLMAIFAEIQDSFCVTRQPSQSQSQ", "soluble on expression in E. coli": "not soluble"}
{"residues": "MKIEVWSDFVCPFCYMGKRRLEIALNEFEYKTDVEISFKSFELDPSAKKEYSENIHELIAKKYKISVEQAKASNDQIVLQAEAIGLNYNFNKLIPTNTFDAHRLSQYAKTKGKMNELSEKIFKAYFVDSLNISDYKVLADLAEEVGISRDESLRILESNQYNEEVREDEKNASKLGIDAVPYFVFDDKYAVSGAQPAEVFLEALYKIDKE", "soluble on expression in E. coli": "not soluble"}
{"residues": "MSKDTKQEDNAPTPVTTTPMALNPKTVEKTMFVNKEVLPKMKKIDPEEPGHLPLNEKFMKRWLIEGLIGKGGYGEIYLALDVVRGEEVAIKVEPKKRRGKLAKRMILEQHVLAKMQGKPHVPMIYGSGHAEKYNFIIMQILSINVGDIKKSSPNKKLSQCSVGRIIHQVIAALQDLHETGYVHRDVKPANMCFGIFPHSRHTLILLDFGLVRRYKMESGEWREPRLRAGFRGTTRYVSIRVHRRCEQSPYDDLVSVMYTAYELLAGELPWKHLEKSEEVVQLKEVMTENGINPELFQGDKSVLIDFFKQVSEMDPMKEPCYEKLIECIKVLYAPKVLTDPYEWEESSKGQDEVSEENTNSK", "soluble on expression in E. coli": "soluble"}
